# assay.target: CYP2C19 (Homo sapiens)
# Construct: 0.1 mg/mL protein human liver microsomes (BD Gentest); tissue BD Gentest; host or cells: human liver microsomes
# Sequence (P33261 whole entry): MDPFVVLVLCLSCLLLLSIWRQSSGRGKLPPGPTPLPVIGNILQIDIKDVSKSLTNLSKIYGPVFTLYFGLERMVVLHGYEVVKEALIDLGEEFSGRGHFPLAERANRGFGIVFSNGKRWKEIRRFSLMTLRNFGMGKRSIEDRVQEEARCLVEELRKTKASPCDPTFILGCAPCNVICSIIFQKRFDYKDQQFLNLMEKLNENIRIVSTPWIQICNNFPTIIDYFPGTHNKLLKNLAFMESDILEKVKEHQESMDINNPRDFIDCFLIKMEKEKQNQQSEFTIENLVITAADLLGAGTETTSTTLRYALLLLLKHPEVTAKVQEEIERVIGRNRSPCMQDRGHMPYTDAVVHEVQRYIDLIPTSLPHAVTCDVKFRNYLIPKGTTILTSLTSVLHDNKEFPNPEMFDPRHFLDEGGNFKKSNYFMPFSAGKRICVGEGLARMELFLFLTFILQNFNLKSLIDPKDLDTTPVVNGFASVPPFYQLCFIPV
# protocol.description: Cocktail assay for CYPs, mephenytoin 4′-hydroxylation (CYP2C19), human liver microsomes
# Assay type: biochemical
# stated.conditions: CYP IC50 (nM) 2C19, 30 μM mephenytoin, 0.1 mg/mL human liver microsomes, 10 min at 37° C.
# maps each entry to its IC50
measured.quantity: IC50 (nM)

>>> print(df.to_string())
                  compound_structure_string  qualifying_sign  value_measured
0  C[C@H](NS(=O)(=O)c1cnc(N2CCN3C[C@H](O)C[C@H]3C2)s1)c1ccccc1-c1cncn1CCc1ccc(F)cc1                >           10000
1  C[C@@H](NS(=O)(=O)c1cnc(N2CCN3C[C@H](O)C[C@H]3C2)s1)c1ccccc1-c1cncn1CCc1ccc(F)cc1                =            8700
